# Tested on: MOLT-4
# ASSAY NAME: NCI tumour cell line growth inhibition, 48 h
Activity calls are given as the source filed them. Cut-off read from the data, not from the text of the source: active = GI50 up to about 1.1 µM and inactive = higher.
READOUT LABEL: GI50

# input What value of GI50 has been recorded for this entry: COc1ccc(-c2nc3c(nc2-c2ccc(OC)cc2)C(N)=NS(=O)(=O)N3)cc1
# output > 100 µM (inactive)

# input What value of GI50 has been recorded for this entry: CCN(CC)CCCNc1nc(=O)[nH]c(C)c1C(=O)Nc1c2ccccc2nc2ccccc12
# output 4.28 µM (inactive)

# input What value of GI50 has been recorded for this entry: O=c1cccccc1O.O=c1cccccc1O.O=c1cccccc1O.[SiH4]
# output 5.74 µM (inactive)

# input What value of GI50 has been recorded for this entry: N[C@H]1CCc2c1nc1c(c2-c2ccccc2)CC[C@@H]1N
# output 8.73 µM (inactive)

# input What value of GI50 has been recorded for this entry: COC1=CC(=O)C2=C(C1=O)[C@H]1CC[C@]3(C)[C@@H](OC(C)=O)CC[C@H]3[C@@H]1CC2
# output 20.2 µM (inactive)

# input What value of GI50 has been recorded for this entry: COc1cc(/C=C/C(=O)OC2C(O)C3CC(OC(=O)c4cc(OC)c(OC)c(OC)c4)CC2N3C)cc(OC)c1OC (centres undefined)
# output 46 µM (inactive)

# input What value of GI50 has been recorded for this entry: O=C1c2ccccc2C(=O)N1C/C=N/NS(=O)(=O)c1cccc([N+](=O)[O-])c1
# output > 100 µM (inactive)

# input What value of GI50 has been recorded for this entry: O=NN(CCCl)C(=O)NCCCl
# output 33.5 µM (inactive)

# input What value of GI50 has been recorded for this entry: COC1(C)CNCC(C)(C)NC(=O)C(C)(OC)CNCC(C)(C)NC1=O (centres undefined)
# output > 100 µM (inactive)

###

# Test system: SNB-19
# ASSAY NAME: NCI tumour cell line growth inhibition, 48 h
Active and inactive are the calls of the source. Cut-off read from the data, not from the text of the source: active = GI50 up to about 1.1 µM and inactive = higher.
For each record, write down the corresponding GI50.

# input What value of GI50 has been recorded for this entry: OC(c1ccccc1)c1c(-c2ccccc2)oc(-c2ccccc2)c1C(O)c1ccccc1 (stereo not given)
# output 14.8 µM (inactive)

# input What value of GI50 has been recorded for this entry: N#Cc1c(Cl)c2cccnc2n2c1nc1ccccc12
# output 15.8 µM (inactive)

# input What value of GI50 has been recorded for this entry: Nc1ccccc1OCc1cc(=O)c(OCc2ccccc2)co1
# output > 100 µM (inactive)

# input What value of GI50 has been recorded for this entry: COC1(C)CNCC(C)(C)NC(=O)C(C)(OC)CNCC(C)(C)NC1=O (stereo not given)
# output > 100 µM (inactive)

# input What value of GI50 has been recorded for this entry: O=S(=O)(c1ccccc1)[C@@H]1[C@H]2C=C[C@](CS)(O2)[C@H]1S(=O)(=O)c1ccccc1
# output > 100 µM (inactive)

# input What value of GI50 has been recorded for this entry: CN1CCc2cc(N)cc3c2C1Cc1ccc(O)c(O)c1-3 (stereo not given)
# output 46.6 µM (inactive)

# input What value of GI50 has been recorded for this entry: CCC1c2[nH]c3ccccc3c2C[C@H]2C(=O)NC(COC(C)(C)C)C(=O)N12 (stereo not given in full)
# output 49.1 µM (inactive)

# input What value of GI50 has been recorded for this entry: O=C(CC(=O)c1cccc2ccccc12)C(=O)NC1C2CC3CC(C2)CC1C3 (stereo not given)
# output > 100 µM (inactive)

# input What value of GI50 has been recorded for this entry: Fc1ccc2nc3n(c2c1)C(c1c(Cl)cccc1Cl)SC3 (stereo not given)
# output > 100 µM (inactive)

# input What value of GI50 has been recorded for this entry: CCOc1cc(C2CC(c3ccc(NS(=O)(=O)c4cc([N+](=O)[O-])ccc4C)cc3)=NN2C(=O)c2ccccc2)ccc1O (stereo not given)
# output 29.6 µM (inactive)

From: ChEMBL document CHEMBL1201862
